Molecular target: human CD33 variant Y127H (human, UniProt P20138 18-364)
Sequence (P20138 18-364 Y127H limits assumed): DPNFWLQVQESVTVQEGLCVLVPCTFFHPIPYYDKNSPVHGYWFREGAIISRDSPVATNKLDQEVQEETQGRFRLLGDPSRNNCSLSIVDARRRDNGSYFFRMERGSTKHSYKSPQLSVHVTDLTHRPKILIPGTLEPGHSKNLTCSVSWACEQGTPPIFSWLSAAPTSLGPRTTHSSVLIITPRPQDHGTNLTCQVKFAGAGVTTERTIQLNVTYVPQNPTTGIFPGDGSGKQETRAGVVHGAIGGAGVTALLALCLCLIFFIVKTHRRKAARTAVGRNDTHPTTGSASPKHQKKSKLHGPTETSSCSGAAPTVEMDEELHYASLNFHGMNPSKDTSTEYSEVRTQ
Assay: flow cytometry, IgG on cells expressing the mutant
Please respond with reported Mean % WT Binding for every item in the list.

input: Reported Mean % WT Binding, binder Refmab #4 (antibody, human IgG1, V domains shown, Tested in IgG format; human IgG1 Fc silent (PG-LALA)) VH: QVQLVQSGAEVKKPGESVKVSCKASGYTFTNYGMNWVKQAPGQGLEWMGWINTYTGEPTYADKFQGRVTMTTDTSTSTAYMEIRNLGGDDTAVYYCARWSWSDGYYVYFDYWGQGTSVTVSS VL: DIVMTQSPDSLTVSLGERTTINCKSSQSVLDSSTNKNSLAWYQQKPGQPPKLLLSWASTRESGIPDRFSGSGSGTDFTLTIDSPQPEDSATYYCQQSAHFPITFGQGTRLEIK : ____
output: 105 % of WT

input: Same question, Refmab #3 (antibody, human IgG1, V domains shown, Tested in IgG format; human IgG1 Fc silent (PG-LALA)) VH: QVQLVQSGAEVKKPGSSVKVSCKASGYTFTDYNMHWVRQAPGQGLEWIGYIYPYNGGTGYNQKFKSKATITADESTNTAYMELSSLRSEDTAVYYCARGRPAMDYWGQGTLVTVSS VL: DIQMTQSPSSLSASVGDRVTITCRASESVDNYGISFMNWFQQKPGKAPKLLIYAASNQGSGVPSRFSGSGSGTDFTLTISSLQPDDFATYYCQQSKEVPWTFGQGTKVEIK this time
output: 75.4 % of WT

input: Follow-up entry: Refmab #2 (antibody, human IgG1, V domains shown, Tested in IgG format; human IgG1 Fc silent (PG-LALA)) VH: QVQLVQSGAEVKKPGSSVKVSCKASGGTFSDYAISWVRQAPGQGLEWMGRIIPILGVADYAQKFQGRVTITADKSTRTAYMELSSLRSEDTAVYYCARNWADAFDIWGQGTMVTVSS VL: DIQLTQSPSSLSASVGDRVTITCRASQGISSVLAWYQQKPGKAPKLLIYDASSLESGVPSRFSGSGSGTDFTLTISSLQPEDFATYYCQQFDSSITFGQGTKLEIK
output: 114 % of WT

input: Repeat with Refmab #1 (antibody, human IgG1, V domains shown, Tested in IgG format; human IgG1 (Absolute Antibody hP67.6, Cat. No. Ab00283-10.0); also called hP67.6) VH: EVQLVQSGAEVKKPGSSVKVSCKASGYTITDSNIHWVRQAPGQSLEWIGYIYPYNGGTDYNQKFKNRATLTVDNPTNTAYMELSSLRSEDTAFYYCVNGNPWLAYWGQGTLVTVSS VL: DIQLTQSPSTLSASVGDRVTITCRASESLDNYGIRFLTWFQQKPGKAPKLLMYAASNQGSGVPSRFSGSGSGTEFTLTISSLQPDDFATYYCQQTKEVPWSFGQGTKVEVK
output: 97.1 % of WT
